Property: unblocking rate constant k–B; scope: individual compounds
Molecular target: adult mouse muscle AChR (α, β, δ, ε) (Mus musculus, UniProt P02716+P04756+P09690+P20782, V433A)
Construct: expressed in transfected cells; host or cells: HEK-293 cells (ATCC CRL-1573), transient calcium phosphate transfection, α:β:δ:ε = 2:1:1:1
Sequence (P04756 21-457 V433A): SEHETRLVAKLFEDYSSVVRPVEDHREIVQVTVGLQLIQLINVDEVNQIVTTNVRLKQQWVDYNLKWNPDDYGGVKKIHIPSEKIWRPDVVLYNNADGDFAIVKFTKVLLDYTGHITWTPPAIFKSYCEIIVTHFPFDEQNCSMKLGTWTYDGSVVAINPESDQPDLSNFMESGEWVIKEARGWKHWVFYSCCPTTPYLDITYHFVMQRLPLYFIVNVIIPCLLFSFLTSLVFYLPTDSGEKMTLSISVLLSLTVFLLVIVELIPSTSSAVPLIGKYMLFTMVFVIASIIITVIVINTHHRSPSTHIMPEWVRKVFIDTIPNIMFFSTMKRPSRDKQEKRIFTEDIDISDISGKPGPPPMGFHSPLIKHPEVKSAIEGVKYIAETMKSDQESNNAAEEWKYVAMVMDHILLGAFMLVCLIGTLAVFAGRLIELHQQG
Sequence (P09690 24-501): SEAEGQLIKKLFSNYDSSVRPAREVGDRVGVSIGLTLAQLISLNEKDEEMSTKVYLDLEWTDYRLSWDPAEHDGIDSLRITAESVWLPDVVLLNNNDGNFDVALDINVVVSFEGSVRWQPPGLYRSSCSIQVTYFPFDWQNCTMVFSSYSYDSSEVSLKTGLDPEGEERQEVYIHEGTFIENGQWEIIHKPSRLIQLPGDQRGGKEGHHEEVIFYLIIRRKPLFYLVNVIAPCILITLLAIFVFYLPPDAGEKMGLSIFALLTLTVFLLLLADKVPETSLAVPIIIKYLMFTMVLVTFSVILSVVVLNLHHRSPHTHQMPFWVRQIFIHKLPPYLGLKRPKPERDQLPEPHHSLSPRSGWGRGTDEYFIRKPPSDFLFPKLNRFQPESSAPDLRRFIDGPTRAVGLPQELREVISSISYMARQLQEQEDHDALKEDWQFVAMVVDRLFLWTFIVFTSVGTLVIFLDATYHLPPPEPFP
Sequence (P02716 25-520): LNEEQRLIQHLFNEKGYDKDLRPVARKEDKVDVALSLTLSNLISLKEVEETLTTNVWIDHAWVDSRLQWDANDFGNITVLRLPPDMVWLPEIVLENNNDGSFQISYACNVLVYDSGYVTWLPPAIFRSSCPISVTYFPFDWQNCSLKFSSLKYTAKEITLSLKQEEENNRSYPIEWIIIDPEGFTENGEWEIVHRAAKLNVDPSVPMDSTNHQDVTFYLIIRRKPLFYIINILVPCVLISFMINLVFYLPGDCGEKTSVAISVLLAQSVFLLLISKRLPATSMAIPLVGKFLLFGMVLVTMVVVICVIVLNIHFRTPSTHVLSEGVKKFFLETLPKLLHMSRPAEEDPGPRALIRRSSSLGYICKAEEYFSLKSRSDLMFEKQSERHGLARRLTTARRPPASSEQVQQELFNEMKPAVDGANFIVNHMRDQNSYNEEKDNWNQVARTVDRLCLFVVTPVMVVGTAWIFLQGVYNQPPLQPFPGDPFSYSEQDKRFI
Sequence (P20782 21-493): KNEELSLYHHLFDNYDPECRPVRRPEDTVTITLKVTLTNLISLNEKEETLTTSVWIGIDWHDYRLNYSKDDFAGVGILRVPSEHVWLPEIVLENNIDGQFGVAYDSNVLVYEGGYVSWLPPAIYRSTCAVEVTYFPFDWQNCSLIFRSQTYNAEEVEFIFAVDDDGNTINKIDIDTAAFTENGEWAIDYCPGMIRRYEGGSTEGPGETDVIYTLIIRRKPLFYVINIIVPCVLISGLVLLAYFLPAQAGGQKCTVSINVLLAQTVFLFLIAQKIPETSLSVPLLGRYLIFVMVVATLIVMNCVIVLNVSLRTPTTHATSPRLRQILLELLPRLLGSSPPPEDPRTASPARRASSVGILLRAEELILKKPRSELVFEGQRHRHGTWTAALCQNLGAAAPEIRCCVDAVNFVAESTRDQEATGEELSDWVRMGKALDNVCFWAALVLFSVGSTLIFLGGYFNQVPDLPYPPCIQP
Experiment: Single-channel patch-clamp analysis of open-channel blockade of AChRs expressed in HEK-293 cells
Type: cell-based
Settings: 100 µM ACh, cell-attached, +70 mV; predominant blockade mode; average of unblocking rates at all tested concentrations
experimental_readout: unblocking rate constant k–B (s⁻¹)

| compound | reported_value |
| --- | --- |
| C[N+]1(CCOCCOCCOCCOCCOCCOCCOCC[N+]2(C)CCCC2)CCCC1 [PQ1] | 64 |
| CCC[N+](C)(CCC)CCOCCOCCOCCOCCOCCOCCOCC[N+](C)(CCC)CCC [PQ5] | 2 |
| CC[N+]1(CCOCCOCCOCCOCCOCCOCCOCC[N+]2(CC)CCCCC2)CCCCC1 [PQ3] | 4 |
| CC[N+](CC)(CC)CCOCCOCCOCCOCCOCCOCCOCC[N+](CC)(CC)CC [PQ4] | 4 |
| C[N+]1(CCOCCOCCOCCOCCOCCOCCOCC[N+]2(C)CCCCC2)CCCCC1 [PQ2] | 2 |

====

Biological target: adult mouse muscle AChR (α, β, δ, ε) (Mus musculus, UniProt P02716+P04756+P09690+P20782, V433A)
Construct: expressed in transfected cells; host or cells: HEK-293 cells (ATCC CRL-1573), transient calcium phosphate transfection, α:β:δ:ε = 2:1:1:1
Assay: Single-channel patch-clamp analysis of open-channel blockade of AChRs expressed in HEK-293 cells
Assay type: cell-based
Details: 100 µM ACh, cell-attached, +70 mV; predominant blockade mode; slope of linear fit of blocking rates

| molecule_smiles | u | blocking rate constant k+B |
| --- | --- | --- |
| CCC[N+](C)(CCC)CCOCCOCCOCCOCCOCCOCCOCC[N+](C)(CCC)CCC | M⁻¹ s⁻¹ | 1.5e+07 |
| CC[N+]1(CCOCCOCCOCCOCCOCCOCCOCC[N+]2(CC)CCCCC2)CCCCC1 | M⁻¹ s⁻¹ | 2.2e+07 |
| C[N+]1(CCOCCOCCOCCOCCOCCOCCOCC[N+]2(C)CCCCC2)CCCCC1 | M⁻¹ s⁻¹ | 2.9e+07 |
| C[N+]1(CCOCCOCCOCCOCCOCCOCCOCC[N+]2(C)CCCC2)CCCC1 | M⁻¹ s⁻¹ | 2e+07 |
| CC[N+](CC)(CC)CCOCCOCCOCCOCCOCCOCCOCC[N+](CC)(CC)CC | M⁻¹ s⁻¹ | 2.2e+07 |
